Recorded Gram-positive MIC, DTT 2 mM for the following compounds
Test system: Bacillus Subtilis
Assay Notes: Antibacterial activity, MIC by double-microdilution method
Type: cell-based
Condition Description: Table 3; Bacillus Subtilis; DTT 2 mM

# Compound String, Gram-positive MIC, DTT 2 mM, µg/mL
data = [
    ("NCCN1CCNCCNCCN(Cc2ccc(CN3CCN(c4cc5c(cc4F)c(=O)c(C(=O)[O-])cn5C4CC4)CC3)cc2)CC1.[Cu+2]", 6),
    ("N=C(N)NCCN1CCNCCNCCN(CCCCc2ccc(CN3CCN(c4cc5c(cc4F)c(=O)c(C(=O)O)cn5C4CC4)CC3)cc2)CC1", 1.5),
    ("NCCN1CCNCCNCCN(Cc2ccc(CN3CCN(c4cc5c(cc4F)c(=O)c(C(=O)O)cn5C4CC4)CC3)cc2)CC1", 6),
    ("N=C(N)NCCN1CCNCCNCCN(CCCc2ccc(CN3CCN(c4cc5c(cc4F)c(=O)c(C(=O)O)cn5C4CC4)CC3)cc2)CC1", 12),
    ("NCCN1CCNCCNCCN(CCCCc2ccc(CN3CCN(c4cc5c(cc4F)c(=O)c(C(=O)O)cn5C4CC4)CC3)cc2)CC1", 6),
]

----------
Experimental System: E. coli DNA gyrase (Escherichia coli, UniProt P0AES4+P0AES6)
Assay Notes: E. coli Gyrase-DNA supercoiling assay
Condition Description: supercoiling of relaxed pHOT-1 plasmid in presence of ATP; 37° C., 60 minutes

# Compound String, Experimental System, IC50, nM
records = [
    ("O=C(O)c1cn(C2CC2)c2cc(N3CCN(CCCCCCCN4CCNCCNCCNCC4)CC3)c(F)cc2c1=O", "E. coli DNA gyrase (Escherichia coli, UniProt P0AES4+P0AES6)", 240),
    ("O=C(O)c1cn(C2CC2)c2cc(N3CCN(CCCCCCN4CCNCCNCCNCC4)CC3)c(F)cc2c1=O", "E. coli DNA gyrase (Escherichia coli, UniProt P0AES4+P0AES6)", 130),
    ("O=C(O)c1cn(C2CC2)c2cc(N3CCN(Cc4ccc(CCCN5CCNCCNCCNCC5)cc4)CC3)c(F)cc2c1=O", "E. coli DNA gyrase (Escherichia coli, UniProt P0AES4+P0AES6)", 70),
]
